Optical Density (OD) overview
Target: Cynomolgus monkey CD1a protein (Cynomolgus monkey)
Assay: ELISA, Ab 10 µg/ml
# output: bare number, implied unit OD

Consider the reported Optical Density (OD) for these binders:
>  <binder>
110 (VR12112) (antibody, V domains shown, V regions were 'cloned as either rabbit or mouse full length antibodies'; also called OX110; antibody 110) VH: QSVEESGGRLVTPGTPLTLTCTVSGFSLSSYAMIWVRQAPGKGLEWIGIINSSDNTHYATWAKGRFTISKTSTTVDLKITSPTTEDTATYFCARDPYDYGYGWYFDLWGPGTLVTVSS VL: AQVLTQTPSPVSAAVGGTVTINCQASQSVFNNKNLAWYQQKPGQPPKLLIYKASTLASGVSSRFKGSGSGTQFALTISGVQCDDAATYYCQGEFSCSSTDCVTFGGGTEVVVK

>  <unit.tag>
OD

>  <Optical Density (OD)>
0.86

$$$$
>  <binder>
77A (VR11851) (antibody, V domains shown, V regions were 'cloned as either rabbit or mouse full length antibodies'; also called OX77a; antibody 77a) VH: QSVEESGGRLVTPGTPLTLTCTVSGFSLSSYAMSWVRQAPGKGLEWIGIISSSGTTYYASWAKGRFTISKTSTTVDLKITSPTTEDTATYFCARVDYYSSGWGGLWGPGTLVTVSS VL: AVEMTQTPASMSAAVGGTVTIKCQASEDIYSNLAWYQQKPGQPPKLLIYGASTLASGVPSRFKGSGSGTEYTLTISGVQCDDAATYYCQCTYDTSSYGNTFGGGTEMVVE

>  <unit.tag>
OD

>  <Optical Density (OD)>
0.52

$$$$
>  <binder>
111 (VR12113) (antibody, V domains shown, also called OX111) VH: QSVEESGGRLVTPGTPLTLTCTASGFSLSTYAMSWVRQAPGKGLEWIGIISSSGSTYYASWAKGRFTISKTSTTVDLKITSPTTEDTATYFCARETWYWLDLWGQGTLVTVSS VL: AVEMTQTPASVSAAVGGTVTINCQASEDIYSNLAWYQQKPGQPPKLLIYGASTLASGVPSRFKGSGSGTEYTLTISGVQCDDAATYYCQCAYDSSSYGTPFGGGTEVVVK

>  <unit.tag>
OD

>  <Optical Density (OD)>
0.79

$$$$

# input binder: 116 (VR12117) (antibody, V domains shown, also called OX116) VH: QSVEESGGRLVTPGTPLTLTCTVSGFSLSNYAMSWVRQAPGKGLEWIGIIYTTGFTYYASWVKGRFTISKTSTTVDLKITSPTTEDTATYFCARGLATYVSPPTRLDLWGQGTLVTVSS VL: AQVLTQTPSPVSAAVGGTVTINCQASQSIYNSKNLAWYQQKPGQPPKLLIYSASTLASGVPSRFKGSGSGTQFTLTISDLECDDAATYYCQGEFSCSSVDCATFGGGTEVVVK ; wanted: its Optical Density (OD) 0.16
